meta.source: ChEMBL document CHEMBL1201862

Observed GI50 values for HCT-15 are listed in what follows.
quantity_name: GI50

# smiles_record, value_reported
measured = [
    ("CC1=CC(=O)N(n2c(Cc3ccc(Cl)cc3)n[nH]c2=O)C1=O", "44.9 µM"),
    ("COc1cc2nc(-c3cccs3)nc(Cl)c2cc1OC", "> 100 µM"),
    ("CCN(CC)CCNC(=O)c1cccc2nc3ccccc3nc12", "6.53 µM"),
    ("O/N=C1/CCCC/C1=C\\c1ccc(Cl)c(Cl)c1", "28.4 µM"),
    ("Cc1ccc(/N=N/c2ccc(O)c(CN(C)C)c2)cc1", "20.6 µM"),
    ("CN(C)c1ccc(/C=c2\\c3ccccc3n3c2cc(-c2ccccc2)[n+]3C)cc1", "1.2 µM"),
]

====

Test system: SR
experiment_description: NCI tumour cell line growth inhibition, 48 h
Calls of active or inactive are those of the source. No stated cut-off is given here; in the data, active = GI50 up to about 1.1 µM and inactive = higher.
Measured GI50, listed per entry for reference.

# molecule, GI50
measured = [
    ("S=C1SC(=N\\c2ccccc2)/C(=N/c2ccccc2)N1c1ccccc1", "> 100 µM (inactive)"),
    ("BrC12c3ccccc3Sc3ccccc3C1(Br)c1ccccc12 (stereo not drawn)", "11.1 µM (inactive)"),
    ("O=[N+]([O-])c1cc(-[n+]2cc([O-])on2)ccc1F", "6.24 µM (inactive)"),
]

====

Test system: Malme-3M
experiment_description: NCI tumour cell line growth inhibition, 48 h
The source made the active and inactive calls. No stated cut-off is given here; in the data, active = GI50 up to about 1.1 µM and inactive = higher.

# compound, GI50
rows = [
    ("CC(C)=CC(=O)Cc1nc2cc(C)c(C)cc2[nH]c1=O", "> 100 µM (inactive)"),
    ("CNC(=O)c1nnn(C2CCCCC2)c1S", "> 100 µM (inactive)"),
    ("COc1ccc(/C=N\\O[Si](C)(C)C(C)(C)C)cc1O[Si](C)(C)C(C)(C)C", "17.6 µM (inactive)"),
    ("O=[N+]([O-])c1cc(-[n+]2cc([O-])on2)ccc1F", "14.7 µM (inactive)"),
    ("CCC12CN(C(=O)OC)C3C(Br)C1CCC(=O)C32 (stereo not given)", "> 100 µM (inactive)"),
    ("C[C@]12CC[C@@H]3c4ccc(O)cc4CC[C@H]3[C@@H]1C/C(=C\\c1ccc([N+](=O)[O-])cc1)C2=O", "67.6 µM (inactive)"),
    ("Cc1cc(Br)c(O)c(-c2cscn2)c1", "21.8 µM (inactive)"),
    ("C[S+]([O-])c1ccc(COP(N)(=O)N(CCCl)CCCl)cc1 (stereo not given)", "> 100 µM (inactive)"),
    ("CCOC(=O)NC(=O)c1cn(CCN2CCN(C(=O)CCCCCCCCCCNc3ncnc4c3ncn4C3OC(CO)C(O)C3O)CC2)c(=O)[nH]c1=O (stereo not given)", "> 100 µM (inactive)"),
    ("CCc1nc2ccc(NCCN(C)C)c3c(=O)c4ccccc4n1c23", "1.61 µM (inactive)"),
]

====

System: HOP-62
experiment_description: NCI tumour cell line growth inhibition, 48 h
Calls of active or inactive are those of the source. Rule as the data show it: active = GI50 up to about 1.1 µM and inactive = higher.
quantity_name: GI50

# molecule, assayed_target, value_reported
records = [
    ("CCCCCCCCCCCCCCCCCC(=O)NCCCNCCCNC(=O)CCCCCCCCCCCCCCCCC", "HOP-62", "> 100 µM (inactive)"),
    ("C=C1CC/C=C(/C(=O)O)CC[C@H]2[C@@H]1CC2(C)C", "HOP-62", "> 100 µM (inactive)"),
    ("O=C(CNc1ccccc1[N+](=O)[O-])Nn1c(-c2ccccc2)nc2ccccc2c1=O", "HOP-62", "20.1 µM (inactive)"),
    ("CCOC(=O)c1c(N2CCOCC2)[nH]c(=O)c(C(c2ccc(N(C)C)cc2)c2c(O)c(C(=O)OCC)c(N3CCOCC3)[nH]c2=O)c1O", "HOP-62", "> 100 µM (inactive)"),
    ("N#CC(C#N)=C1C(=O)NC(N)=C1C#N", "HOP-62", "> 100 µM (inactive)"),
    ("CCSc1c2ccccc2c(-c2nc(F)nc(F)n2)n1CCc1ccccc1", "HOP-62", "> 100 µM (inactive)"),
    ("COc1cccc2c1C(=O)C1(O)CCCCC21 (stereo unspecified)", "HOP-62", "> 100 µM (inactive)"),
    ("Cc1nc(N)c(N2CCN(C#N)CC2)c(O)n1", "HOP-62", "> 100 µM (inactive)"),
    ("S=C1SC(=N\\c2ccccc2)/C(=N/c2ccccc2)N1c1ccccc1", "HOP-62", "28 µM (inactive)"),
    ("O=[N+]([O-])c1ccc(C2=Nc3ccccc3SC(c3ccccc3)C2)cc1 (stereo unspecified)", "HOP-62", "20.7 µM (inactive)"),
    ("C=CCCc1cc(OC)ccc1CN(C)C(C)(C)CO", "HOP-62", "> 100 µM (inactive)"),
    ("Cc1ccc(OP(=O)(Oc2ccc(C)cc2)N2C=Cc3ccccc3C2C#N)cc1 (stereo unspecified)", "HOP-62", "> 100 µM (inactive)"),
    ("COC(=O)c1ccccc1NC(=O)C(=O)NNC(=O)c1ccncc1", "HOP-62", "> 100 µM (inactive)"),
    ("O=C(O)c1ccccc1/C=N/N=C1NCCCCN1", "HOP-62", "> 100 µM (inactive)"),
    ("O=C1Nc2ccccc2/C1=C\\c1c(-c2ccccc2)nc2n1CCS2", "HOP-62", "29.2 µM (inactive)"),
    ("CC1=C(C(=O)NCc2ccccc2)C(c2ccccc2C)C(C(=O)NCc2ccccc2)=C(C)N1", "HOP-62", "29.9 µM (inactive)"),
    ("C[Si](C)(C)OC1(C#N)c2ccccc2CCCC12CCCC2 (stereo unspecified)", "HOP-62", "67.9 µM (inactive)"),
    ("Clc1ccc(C2=NNC(c3cccc(Cl)c3)C2)cc1 (stereo unspecified)", "HOP-62", "32.2 µM (inactive)"),
    ("CCOC(=O)CCC(NC(=O)c1ccc(Nc2nc3cc(C(F)(F)F)ccc3nc2-c2ccccc2)cc1)C(=O)OCC (stereo unspecified)", "HOP-62", "> 100 µM (inactive)"),
    ("COC(=O)[C@]12CC[C@H]3CN(C(=O)OCc4ccccc4)[C@H]([C@H]31)[C@H](c1ccco1)N2S(=O)(=O)c1ccc(C)cc1", "HOP-62", "25.8 µM (inactive)"),
    ("Cc1cccc2sc(NC(=O)NS(=O)(=O)n3cnc4ccccc43)nc12", "HOP-62", "34.7 µM (inactive)"),
]

====

Measured GI50, listed per entry for reference.
Tested on: SF-539
experiment_description: NCI tumour cell line growth inhibition, 48 h
Activity calls are given as the source filed them. Rule as the data show it: active = GI50 up to about 1.1 µM and inactive = higher.

# smiles_record, GI50
data = [
    ("O=c1[nH]nc2ccccc2c1Cl", "15.6 µM (inactive)"),
    ("COc1c2c(c(OC)c3c1c(=O)c1ccccc1n3C)OCO2", "5.31 µM (inactive)"),
    ("COc1cc2c(cc1O)NC(=S)[C@@H]1CCCN1C2=O", "> 100 µM (inactive)"),
    ("CC1=NN(C(=O)c2ccc(Cl)cc2)C(=O)/C1=C/c1ccc(Cl)cc1", "> 100 µM (inactive)"),
]

====

Tested on: CAKI-1
experiment_description: NCI tumour cell line growth inhibition, 48 h
Calls of active or inactive are those of the source. Cut-off read from the data, not from the text of the source: active = GI50 up to about 1.1 µM and inactive = higher.
quantity_name: GI50

# compound, value_reported
measured = [
    ("CCN(CC)CCNC(=O)c1cccc2nc3ccccc3nc12", "> 39.3 µM (inactive)"),
    ("Cc1nc(Nc2ccccc2Cl)sc1C(=O)CC(=O)C(=O)Nc1c(Cl)cccc1Cl", "84.1 µM (inactive)"),
    ("CC(=O)Nc1cc(C(=O)Nc2cc(C(=O)Nc3cc(C(=O)Nc4cc(C(=O)Nc5cc(C(=O)NCCC(=O)NCCCN(C)C)n(C)c5)n(C)c4)n(C)c3)n(C)c2)n(C)c1", "19.5 µM (inactive)"),
    ("BrC12c3ccccc3Sc3ccccc3C1(Br)c1ccccc12 (stereo not given)", "26.1 µM (inactive)"),
    ("O=[N+]([O-])c1ccccc1CSc1nc(O)c2nc[nH]c2n1", "90.4 µM (inactive)"),
]

====

Measured GI50, listed per entry for reference.
Tested on: SK-MEL-2
experiment_description: NCI tumour cell line growth inhibition, 48 h
Calls of active or inactive are those of the source. Rule as the data show it: active = GI50 up to about 1.1 µM and inactive = higher.
quantity_name: GI50

# compound, assayed_target, value_reported
measured = [
    ("COc1c2c(c(OC)c3c1c(=O)c1ccccc1n3C)OCO2", "SK-MEL-2", "> 19.9 µM (inactive)"),
    ("Cc1ccc(/N=N/c2ccc(O)c(CN(C)C)c2)cc1", "SK-MEL-2", "15.2 µM (inactive)"),
    ("O=C1CCN(CCC(F)(F)C(F)(F)C(F)(F)C(F)(F)F)C(=S)N1", "SK-MEL-2", "> 100 µM (inactive)"),
    ("Cc1c(Cl)ccc2c1NC(=O)C2(O)C1Cc2ccccc2C1=O (stereo unspecified)", "SK-MEL-2", "> 100 µM (inactive)"),
    ("COC(=O)CCC(=O)N1CC1C (stereo unspecified)", "SK-MEL-2", "> 100 µM (inactive)"),
    ("CNC(=O)c1nnn(C2CCCCC2)c1S", "SK-MEL-2", "> 100 µM (inactive)"),
]
